# TEST SETTINGS: human, in vivo, inhaled or intranasal, 12 mg
MEASURED PARAMETER: Tmax (min)

{"CHEMICAL SMILES": "C[C@@H]1NC(=O)CNC(=O)[C@H](CCC(=O)O)NC(=O)[C@@H]2CCCN2C(=O)[C@H]([C@@H](C)O)NC(=O)[C@H](CCC(=O)O)NC(=O)[C@H](CCCNC(=N)N)NC(=O)[C@H](CCC(N)=O)NC(=O)CNC(=O)[C@@H](N)CSSC[C@@H](C(=O)O)NC(=O)[C@H](Cc2ccc(O)cc2)NC(=O)[C@H](Cc2c[nH]c3ccccc23)NC(=O)[C@@H]2CCCN2C(=O)[C@H](CCCCN)NC(=O)[C@H](C)NC(=O)[C@H](CCC(=O)O)NC1=O", "MEASURED PARAMETER": "Tmax", "UNITS OF MEASURE": "min", "EXPERIMENTAL RESULT": 5}
